# glycan array binding signal (z-score) per entry
# system-tested: Glc(b1-6)Glc
# run-description: glycan array binding signal (z-score within array); higher = stronger binding
# assay-conditions: glycan notation: IUPAC condensed, linker removed
Shown is part of a subset that was picked to be rich in the strongest signals.
endpoint-name: glycan array binding signal (z-score)

>>> result_number("Drgal1 (Danio rerio) (protein) MAGVLIQNMSFKVGQTLTITGVPKPDSTNFAINIGHSPEDIALHMNPRFDAHGDQCTIVCNSFQSGSWCEEHRDDNFPFIQDKEFQIKITFTNEEFLVTLPDGSEIHFPNRQGSEKYKYMYFEGEVRIQGVEIK")
-0.633
>>> result_number("ECL (Erythrina cristagalli), Q6YD91 (protein) VETISFSFSEFEPGNNDLTLQGAAIITQSGVLQLTKINQNGMPAWDSTGRTLYTKPVHIWDMTTGTVASFETRFSFSIEQPYTRPLPADGLVFFMGPTKSKPAQGYGYLGVFNNSKQDNSYQTLAVEFDTFSNPWDPPQVPHIGIDVNSIRSIKTQPFQLDNGQVANVVIKYDASSKILLAVLVYPSSGAIYTIAEIVDVKQVLPEWVDVGLSGATGAQRDAAETHDVYSWSFHASLPETND")
-0.304
>>> result_number("MRCL (Homo sapiens), NP_872425.1 (protein) ATKVHFPFHTCDLRIDGDCFMVSSEADTYYRARMKCQRKGGVLAQIKSQKVQDILAFYLGRLETTNEVTDSDFETRNFWIGLTYKTAKDSFRWATGEHQAFTSFAFGQPDNHGLVWLSAAMGFGNCVELQASAAFNWNNQRCKTRNRYICQFAQEHISRWGPGS")
-0.712
>>> result_number("Flo5 (Saccharomyces cerevisiae), P38894 (protein) MGSSHHHHHHSSGLVPRGSHMSGATEACLPAGQRKSGMNINFYQYSLKDSSTYSNAAYMAYGYASKTKLGSVGGQTDISIDYNIPCVSSSGTFPCPQEDSYGNWGCKGMGACSNSQGIAYWSTDLFGFYTTPTNVTLEMTGYFLPPQTGSYTFSFATVDDSAILSVGGSIAFECCAQEQPPITSTNFTINGIKPWDGSLPDNITGTVYMYAGYYYPLKVVYSNAVSWGTLPISVELPDGTTVSDNFEGYVYSFDDDLSQSNCTIPDPSIH")
-0.203
